# ASSAY REMARKS: viability profiling in MM1S myeloma cells – cell-based, resazurin fluorescence, basal, 24 h, PK04 Diversity Set, profiling panel (AID 1174);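 note: MM1S multiple myeloma cell line; test concentration not given here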
# ASSAY CONDITIONS: higher = more signal, called active from +8 up or from −8 down
The source made the active and inactive calls.
z-score values, listed per item

COMPOUND: COc1ccc(CCNC(=O)[C@@]2(C)c3ccccc3C(=O)N(Cc3ccccc3)[C@H]2c2ccc(CO)cc2)cc1
z-score: 0.617 (inactive)

COMPOUND: C[C@]1(C(=O)NCC(F)(F)F)c2ccccc2C(=O)N(Cc2cc(F)cc(C(F)(F)F)c2)[C@H]1c1ccc(CO)cc1
z-score: -0.191 (inactive)

COMPOUND: C=CC[C@@]1(C(=O)NCCN2CCOCC2)N=C(c2ccc(OCCCO)cc2)O[C@@H]1c1ccccc1CN=[N+]=[N-]
z-score: 0.331 (inactive)

COMPOUND: CC(C)[Si]1(C(C)C)O[C@@H](c2ccccc2)c2cc(-c3ccc(-c4ccc(Cl)c(Cl)c4)o3)nc(CCc3ccccc3)c21
z-score: -0.701 (inactive)

COMPOUND: CC(C)C(O)C1C=CC2C(=O)N(C)C(=O)C2N1N1CCCCC1 (stereo unspecified)
z-score: -0.82 (inactive)

COMPOUND: COC(=O)c1c(CC[C@@H](CO)NC(=O)Nc2ncn[nH]2)oc(C(=O)Cc2ccccc2)c1C(=O)OC
z-score: 0.059 (inactive)

COMPOUND: CN(C)CCCCCCNC(=O)[C@@H]1C[C@@H]2C(=O)NCC(=O)N2[C@@H]1c1cccc(OCCO)c1
z-score: -0.578 (inactive)

COMPOUND: O=C1OCC=C[C@H]2OC34C=CCN(c5ccc6ccccc6c5)C(=O)[C@H]3N(CCO)C(=O)[C@@H]4[C@@H]12 (stereo partly specified)
z-score: 0.0073 (inactive)

COMPOUND: O=C1O[C@H](c2ccccc2)[C@H](c2ccccc2)N2[C@H]1[C@@H](C(=O)Nc1nc3ccccc3s1)[C@]1(C(=O)Nc3ccc(C#CC4=CCCCC4)cc31)[C@H]2c1ccc(OCCO)cc1
z-score: -0.543 (inactive)

COMPOUND: CCCCC(=O)N(Cc1ccccc1F)[C@@H]1CC(C(=O)NCCO)=C[C@H](Oc2c(I)cc(CO)cc2OC)[C@H]1O
z-score: -0.137 (inactive)

COMPOUND: Cc1ccccc1/C=C/C=O
z-score: 0.971 (inactive)

COMPOUND: C=C[C@H](C)[C@H](O)c1ccc(OCCO)cc1
z-score: 0.867 (inactive)

COMPOUND: CCCNC(=O)[C@@]1(C)c2ccccc2C(=O)N(Cc2ccc(OC(F)(F)F)cc2)[C@H]1c1ccc(CO)cc1
z-score: -0.0521 (inactive)

COMPOUND: O=C(NCC(O)CO)[C@@]1(Cc2ccccc2)N=C(c2ccc(OCCCO)cc2)O[C@H]1c1ccccc1 (stereo partly specified)
z-score: 0.583 (inactive)

COMPOUND: C=CCN1C(=O)[C@]2(Cc3ccccc31)N=C(c1ccc(OCCCO)cc1)O[C@@H]2c1ccccc1
z-score: -1.48 (inactive)

COMPOUND: C=CCNC(=O)[C@H]1[C@@H]2C(=O)O[C@@H](c3ccccc3)[C@@H](c3ccccc3)N2[C@@H](c2ccc(O)cc2)[C@]12C(=O)Nc1ccc(C#Cc3ccc(OC)cc3)cc12
z-score: -1.57 (inactive)
